target: Fibroblast growth factor 10 (Homo sapiens); experiment: compounds binding fibroblast growth factor 10 – biochemical, small-molecule microarray, 635 nm fluorescence, primary screen (AID 1102); conditions: FGF10 binding, fluorescence 635 nm, higher = more signal
Measured composite z-score, listed per entry.
Form: value (number only, do not type unit).

Worked cases, composite z-score given:
{"compound": "CCCNC(=O)[C@@]1(Sc2ccc(C)cc2)CC(=O)N(Cc2ccccc2)[C@@H]1c1ccc(CO)cc1I", "endpointValue": 0.559}
{"compound": "COc1ccccc1CN1C(=O)c2ccccc2[C@@]2(Cc3ccccc3N(C3CC3)C2=O)[C@@H]1c1ccc(CO)cc1", "endpointValue": -0.671}
{"compound": "C[C@H]1ON(c2ccccc2)[C@@H](c2ccccc2)[C@@H]1C(=O)N1C(=O)OC[C@@H]1c1ccccc1", "endpointValue": 0.675}
{"compound": "O=[N+]([O-])c1ccc(C[n+]2ccc(-c3ccc(CO)cc3)cc2)o1", "endpointValue": 0.527}
{"compound": "C=CCOC(=O)[C@@H]1[C@H]2C(=O)O[C@H](c3ccccc3)[C@H](c3ccccc3)N2[C@H](c2ccc(OCCOC(=O)[C@@H]3C[C@@H]4C(=O)N[C@@H](CCCCNC(C)=O)C(=O)N4[C@@H]3c3ccc(O)cc3)cc2)[C@@]12C(=O)Nc1ccc(I)cc12", "endpointValue": 1.43}
{"compound": "CC(C)CCC[C@@H](C)[C@H]1CC[C@@]2(C)C3=C(CC[C@]12C)[C@@]1(C)CC[C@H](OC(=O)C(C)(C)C)C(C)(C)C1CC3 (stereo partly drawn)", "endpointValue": 0.897}

Form: item O=C1C[C@@](C(=O)NCc2ccccc2)(c2ccc([N+](=O)[O-])cc2)[C@@H](c2ccc(CO)cc2I)N1C1CCCCC1 ; test system Fibroblast growth factor 10 (Homo sapiens); composite z-score: 0.7

Recorded composite z-score for C[N+](C)(C)CCCC[C@@H]1NC(=O)[C@@H]2C[C@H](C(=O)O)[C@H](c3cccc(OCCO)c3)N2C1=O on Fibroblast growth factor 10 (Homo sapiens) was 0.11

Record for C=CC[C@]1(C(=O)N2CCOCC2)N=C(c2ccc(OCCCO)cc2)O[C@H]1c1ccccc1CN=[N+]=[N-] under target or system Fibroblast growth factor 10 (Homo sapiens): composite z-score reported as 1.24

Reading of composite z-score for COc1ccc([Si](C)(C)[C@@H]2[C@@H](CCO)O[C@]3(C(=O)N(Cc4ccccc4)c4ccc(N5CCCCC5=O)cc43)[C@H]2C)cc1 with Fibroblast growth factor 10 (Homo sapiens): 0.959

The compound O=C1OCCC=C[C@H]2OC34C=CCN(Cn5nnc6ccccc65)C(=O)[C@H]3N(CCCCCO)C(=O)[C@@H]4C12 (stereo partly drawn) on Fibroblast growth factor 10 (Homo sapiens): composite z-score was -0.691

###

tested on: Lefty1; assay: Lefty1 protein binding to printed compounds – biochemical, small-molecule microarray, 635/667 nm fluorescence, primary screen (AID 1139); details: fluorescence 635/667, higher = more signal
Returns true (1) if the recorded composite z-score is greater than or equal to 0.3, and false (0) otherwise.

Solved cases below.
{"compound": "COc1ccc([Si](C)(C)[C@@H]2[C@@H](CCO)O[C@]3(C(=O)N(Cc4ccccc4)c4ccc(N5C(=O)COc6ccccc65)cc43)[C@H]2C)cc1", "label": "true (1)"}
{"compound": "COCCOC(=O)N1C(=O)[C@@]2(c3cc(C#CCCO)ccc31)[C@H](C(=O)N1CCc3cc(OC)c(OC)cc3C1)[C@H]1C(=O)O[C@H](c3ccccc3)[C@H](c3ccccc3)N1[C@@H]2c1ccc(OCCO)cc1", "label": "true (1)"}
{"compound": "C[C@@]1([C@@H](NC(=O)c2cccs2)c2ccc(-c3ccccc3)cc2)C[C@H]1C1CCCCC1", "label": "false (0)"}
{"compound": "Cc1ccccc1C(O)C1C=CC2C(=O)N(C)C(=O)C2N1Nc1ccc([N+](=O)[O-])cc1[N+](=O)[O-] (stereo not drawn)", "label": "false (0)"}
{"compound": "O=C1C2C=CC(C(O)c3ccc(Br)cc3)N(Nc3ccccc3)C2C(=O)N1c1ccccc1 (stereo not drawn)", "label": "false (0)"}

Qu. Please check the record COc1ccc([Si](C)(C)[C@@H]2[C@@H](CCO)O[C@]3(C(=O)N(Cc4ccccc4)c4ccc(N5CCCCC5=O)cc43)[C@H]2C)cc1 and state if its composite z-score is at or above 0.3.
Ans. true (1)

Qu. Kindly determine if composite z-score recorded for Cc1ccccc1C(O)C1C=CC2C(=O)N(Cc3ccccc3)C(=O)C2N1n1cnnc1 (stereo not drawn) is above or exactly 0.3.
Ans. true (1)

Qu. Check if composite z-score >= 0.3 (inclusive). Item: C=CCC(OC(C)=O)[C@@H]1[C@@H](N(Cc2ccc(-c3ccccc3)cc2)C(=O)c2cccc3ccccc23)c2cc(OCCCO)ccc2N1C(=O)c1ccc2ccccc2n1 (stereo partly drawn)
Ans. true (1)

Qu. Could you tell me if the measured composite z-score of CCC[C@@H]1C[C@@]1(CCC)[C@@H](NC(=O)c1ccco1)c1ccc(Cl)cc1 reaches 0.3 or more?
Ans. false (0)

Qu. Check if composite z-score >= 0.3 (inclusive). Item: COC(=O)[C@@]1(Cc2ccc(OC)cc2)[C@H]2c3cc(C(=O)N(C)C)n(CCF)c3C[C@H]2CN1C(=O)c1ccccc1
Ans. false (0)

Qu. Determine whether measured composite z-score meets or exceeds 0.3 for CCCCC(O)C1C=CC2C(=O)N(Cc3ccccc3)C(=O)C2N1n1cnnc1 (stereo not drawn)
Ans. false (0)

Qu. # bool: composite z-score of O=C1c2ccccc2[C@](Cc2ccccc2I)(C(=O)NCC(F)(F)F)[C@H](c2ccc(CO)cc2)N1Cc1ccccc1 >= 0.3
Ans. true (1)

Qu. Is the recorded value of composite z-score equal to or greater than 0.3 for this compound? C=CCOC(=O)[C@@H]1[C@H]2C(=O)O[C@H](c3ccccc3)[C@H](c3ccccc3)N2[C@H](c2ccc(OCCOC(=O)[C@@H]3C[C@@H]4C(=O)N5CCC[C@H]5C(=O)N4[C@@H]3c3cccc(OCCO)c3)cc2)[C@@]12C(=O)Nc1ccc(I)cc12
Ans. true (1)

Qu. Is composite z-score at least 0.3? Consider CCCC[C@@H](O)C1=C(COc2ccccc2)Cn2c(=O)n(-c3ccccc3)c(=O)n2[C@H]1CO
Ans. false (0)
